Test: Displacement of [3H]epibatidine from alpha3beta4* nAChR in calf adrenal P1 membrane after 90 mins by liquid scintillation counting
Type: cell membranes, Bos taurus
outcome measure: Ki

CCCCCCCCn1cc(CN(C)C)c2ccccc21: > 10 µM
CCCCCCCCCCCCn1cc(CC[N+](C)(C)C)c2ccccc21: > 10 µM
Cn1cc(CC[N+](C)(C)C)c2ccccc21: 2.01 µM

# map each compound to its Ki
1. CCCCCCCCn1cc(CC[N+](C)(C)C)c2ccccc21
2. CC(C)=CCn1cc(CN(C)C)c2ccc(Br)cc21
3. CCCCCCCCCCCCn1cc(CCCN(C)C)c2ccccc21
4. C=CCn1cc(CC[N+](C)(C)C)c2ccccc21
5. CNCCc1cn(CC=C(C)C)c2ccccc12
6. CCCCCCCCCCn1cc(CCN(C)C)c2ccccc21

["> 10 µM", "> 10 µM", "> 10 µM", "0.365 µM", "> 10 µM", "> 10 µM"]

Quick batch: Ki for everything below.
1. CC(C)=CCn1cc(CCN(C)C)c2ccccc21
2. CN(C)CCc1cn(C)c2ccccc12

1: 1.82 µM; 2: 3.68 µM

Can you give me Ki for all of these, one by one?
1. CCCCCCCCCCCCn1cc(CCC[N+](C)(C)C)c2ccccc21
2. CCCCCCCCn1c(CN(C)C)cc2ccccc21
3. CC(C)=CCn1cc(CC[N+](C)(C)C)c2ccc(Br)cc21
4. CNCCc1cn(C)c2ccccc12
5. CC(C)=CCn1cc(CC[N+](C)(C)C)c2ccccc21
6. CCCCCCCCn1cc(CCC[N+](C)(C)C)c2ccccc21
7. CC(C)=CCn1cc(C[N+](C)(C)C)c2ccc(Br)cc21

> 10 µM
> 10 µM
5.33 µM
> 10 µM
0.0939 µM
> 10 µM
> 1 µM

List reported Ki for each of these compounds:
1. CCCCCCCCCCn1cc(C[N+](C)(C)C)c2ccccc21
2. CC(C)=CCn1cc(C[N+](C)(C)C)c2ccccc21
3. CCCCCCCCCCn1cc(CCC[N+](C)(C)C)c2ccccc21
4. CCCCCCCCn1cc(C[N+](C)(C)C)c2ccccc21
5. CCCCCCCCn1cc(CCCN(C)C)c2ccccc21
6. CCCCCCCCCCn1cc(CCCN(C)C)c2ccccc21

1. > 10 µM
2. > 10 µM
3. > 10 µM
4. 3.4 µM
5. > 10 µM
6. > 10 µM
